System under test: T1, CD9-ECL2(CD9 extracellular domain 2)-Fc antigen (human)
T1 construct: also called CD9-ECL2-Fc; CD9-EC2-Fc
T1 sequence (chain, as listed by the source limits assumed): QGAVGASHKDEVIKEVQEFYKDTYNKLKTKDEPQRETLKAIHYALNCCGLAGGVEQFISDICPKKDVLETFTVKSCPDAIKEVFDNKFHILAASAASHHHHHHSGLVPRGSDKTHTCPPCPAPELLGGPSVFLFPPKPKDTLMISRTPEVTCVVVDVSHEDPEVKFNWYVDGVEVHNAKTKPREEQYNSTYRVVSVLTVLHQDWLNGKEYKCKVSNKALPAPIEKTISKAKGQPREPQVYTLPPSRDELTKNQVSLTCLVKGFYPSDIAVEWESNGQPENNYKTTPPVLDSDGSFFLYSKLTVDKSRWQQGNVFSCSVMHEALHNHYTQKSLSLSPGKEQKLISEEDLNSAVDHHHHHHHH
Test description: phage ELISA; CD9 OD/a-myc OD (repeats Table 3)
Experimental: A 96-well immuno-plate was coated with CD9-EC2-Fc antigen (0.1 μg/well) at 4° C. for 16 hours, followed by blocking with skim milk dissolved in PBS (4%). Each well of the 96-well immuno-plate was washed with 0.2 ml of PBS-tween20 (0.05%). 100 ul of the 3rd-4th panning monoclonal scFV-phage was added to each well, followed by reaction at room temperature for 2 hours. Each well was washed four times with 0.2 ml of PBS-tween20 (0.05%). […] OD₄₉₀ was measured.
# maps each entry to its Ratio
Quantity kind: Ratio

- CD9 12F scFv monoclonal phage antibody (scFv, V domains shown, also called 12F3) VH: QVQLVQSGAEVKKPGASVKLSCKASGYTFSSYWMHWVRQAPGQRLEWMGEINPGNGHTNYNEKFKSRVTITVDKSASTAYMELSSLRSEDTAVYYCARELEEGAFDIWGQGTMVTVSS VL: DIQMTQSPSSLPASVGDRVTITCRASQGISSYLAWYQQKPGKAPKLLIYAASTLQSGVPSRFSGSGSGTDFTLTISSLQPEDFATYYCQQYDSVPLTFGGGTKVEIK: 0.668
- CD9 8A scFv monoclonal phage antibody (scFv, V domains shown, also called 8A3) VH: QVQLVQSGAEVKKPGASVKLSCKASGYTFSSYWMHWVRQAPGQRLEWMGEINPGNGHTNYNEKFKSRVTITVGKSASTAYMELSSLRSEDTAVYYCAREGVSAAGGLDHWGQGTQITVSS VL: DIQMTQSPSSLSVSTGARVTITCRASQGISNYLAWYQQKPGKAPKLLIYAASTLQSGVPSRFSGSGSGTDFTLTISSLQPEDFATYYCQQLNSYPLTFGGGTKVEIK: 0.73
- CD9 11G scFv monoclonal phage antibody (scFv, V domains shown, also called 11G3) VH: QVQLVQSGAEVKKPGASVKLSCKASGYTSSSYWMHWVRQAPGQRLEWMGEINPGNGHTNYNEKFKSRVTITVDKSASTAYMELSSLRSEDTAVYYCGQDNSPPRIWGQGTLVTVSS VL: DIQMTQSPSTLSASVGDRVTITCRASQTIGNLAWFQQKPGKAPKLLIYKASSLESGVPSRFSGSGSGTEFTLTISSLQPDDFATYYCQQYSDYWTFGQGTKVEIK: 1.23
- CD9 3F3 scFv monoclonal phage antibody (scFv, V domains shown, not shown: small tags and cut ends) VH: QMQLVQSGAEVKKPGASVKLSCKASGYTFSSYWMHWVRQAPGQRLEWMGEINPGNGHTNYNEKFKSRVTITVDKSASTAYMELSSLRSEDTAVYYCGQDNSPPRIWGQGTLITVSS VL: QSALTQPASVSGSPGQSITISCTGTSSDVGGYNHVSWYQQHPGKAPKLLIYDVSNRPSGVSGRFSGSKSGNTASLTISGLQAEDEANYYCGSYTSSSTFEVFGTGTKVTVL: 0.918

FYI, the data here is from patent US20110195027A1.
